Sourced from paper PMC12336439

biological target: USP7asoc (active site only cysteine) (Homo sapiens, UniProt Q93009, C300S/C315S/C334S/C478S/C488S/C510S); construct: (208‐560, C300/315/334/448/478/510S); made in house; experiment: Differential scanning fluorimetry (DSF), melting temperature shift of USP7asoc mutant; format: binding; details: 8 µM protein, 250 µM compound (1:31.25), 30 min incubation at 20°C
Sequence (Q93009 with tags, fused parts or gaps C300S/C315S/C334S/C478S/C488S/C510S): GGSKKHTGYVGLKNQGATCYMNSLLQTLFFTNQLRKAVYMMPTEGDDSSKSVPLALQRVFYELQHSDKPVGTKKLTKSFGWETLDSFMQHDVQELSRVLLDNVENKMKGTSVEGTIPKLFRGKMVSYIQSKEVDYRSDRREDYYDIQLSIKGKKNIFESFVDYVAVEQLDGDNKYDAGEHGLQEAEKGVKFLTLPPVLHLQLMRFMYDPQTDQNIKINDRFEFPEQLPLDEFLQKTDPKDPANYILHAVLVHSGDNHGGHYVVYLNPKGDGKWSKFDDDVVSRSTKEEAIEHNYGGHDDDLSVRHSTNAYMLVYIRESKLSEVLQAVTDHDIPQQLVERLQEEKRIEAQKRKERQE
observed_property: ∆T m ± SD USP7asoc (°C)

# annotated cases, reported ∆T m ± SD USP7asoc shown
O=[N+]([O-])c1ccc(F)nc1Nc1cc2c(-c3cnn(CCO)c3)cccc2cn1
0.48
O=[N+]([O-])c1ccc(Cl)nc1Nc1cc2c(-c3ccc(-c4cccnc4)cc3)cccc2cn1
0.15
CCCn1cc(-c2cccc3cnc(Nc4nc(F)ccc4[N+](=O)[O-])cc23)cn1
0.00
O=[N+]([O-])c1ccc(Cl)nc1Nc1cc2c(-c3ccc(-c4ccncc4)cc3)cccc2cn1
0.10
O=[N+]([O-])c1ccc(F)nc1Nc1cc2c(-c3ccc(-c4cccnc4)cc3)cccc2cn1
0.30
CCn1cc(-c2cccc3cnc(Nc4nc(Cl)ccc4[N+](=O)[O-])cc23)cn1
0.05

P = Cn1ccc(-c2cccc3cnc(Nc4nc(F)ccc4[N+](=O)[O-])cc23)c1
Q = Cn1cc(-c2cccc3cnc(Nc4nc(Cl)ccc4[N+](=O)[O-])cc23)cn1
## Task Which entry has a larger number for ∆T m ± SD USP7asoc, P or Q ? # answer = label of selected item
## Result Q
(Q: 0.10 °C, P: 0.05 °C)

* * *

target: USP7asoc (active site only cysteine) (Homo sapiens, UniProt Q93009, C300S/C315S/C334S/C478S/C488S/C510S); construct: (208‐560, C300/315/334/448/478/510S); made in house; experiment: Differential scanning fluorimetry (DSF), melting temperature shift of USP7asoc mutant; type: binding; settings: 8 µM protein, 250 µM compound (1:31.25), 24 h incubation at 20°C
observed_property: ∆T m ± SD USP7asoc (°C)

CCCn1cc(-c2cccc3cnc(Nc4nc(F)ccc4[N+](=O)[O-])cc23)cn1
0.35
O=[N+]([O-])c1ccc(Cl)nc1Nc1cc2c(-c3ccc(-c4cccnc4)cc3)cccc2cn1
0.28

* * *

target: USP7 (Homo sapiens); construct: USP7 catalytic domain (USP7CD) (208‐560); made in house; test: Differential scanning fluorimetry (DSF), melting temperature shift of USP7; format: binding; settings: 8 µM protein, 250 µM compound (1:31.25), 30 min incubation at 20°C
Sequence (Q93009 with tags, fused parts or gaps): as the sequence (Q93009 with tags, fused parts or gaps C300S/C315S/C334S/C478S/C488S/C510S) above, with S96C, S111C, S130C, S274C, S284C, S306C counted along it
observed_property: ∆T m ± SD USP7

## Task Retrieve ∆T m ± SD USP7 measured for CCCn1cc(-c2cccc3cnc(Nc4nc(Cl)ccc4[N+](=O)[O-])cc23)cn1 [8d] and print it.
## Result 0.25 ± 0.09 °C

* * *

biological target: USP7asoc (active site only cysteine) (Homo sapiens, UniProt Q93009, C300S/C315S/C334S/C478S/C488S/C510S); construct: (208‐560, C300/315/334/448/478/510S); made in house; assay: Differential scanning fluorimetry (DSF), melting temperature shift of USP7asoc mutant; format: binding; conditions: 8 µM protein, 250 µM compound (1:31.25), 24 h incubation at 20°C
Marks after values point to notes of the source that are not given here.
Parameter: ∆T m ± SD USP7asoc. Scope: all listed entries.

CCn1cc(-c2cccc3cnc(Nc4nc(F)ccc4[N+](=O)[O-])cc23)cn1 [7c]
0.23 ± 0.08 ^b °C

In the following, a different molecule is considered.
## Task Retrieve ∆T m ± SD USP7asoc measured for O=[N+]([O-])c1ccc(F)nc1Nc1cc2c(-c3cnn(C4CC4)c3)cccc2cn1 [7e] and print it.
## Result 0.40 ± 0.09 ^b °C
